Assay: Drug concentration in Wistar Hann rat CSF at 5 mg/kg, sc after 1 hr
Format: ADME, organism-based, Cerebrospinal fluid
Details: read-out: Drug uptake
property.measured: concentration at 1 h (nM)
Quick note: give the figure in nM, leave out the unit.

The recorded concentration at 1 h for "Cn1ccc(-c2ccc(Cn3cc(C(=O)N[C@H]4CCOC[C@@H]4O)c4ncccc43)cc2)n1" is 133

---

Assay: Drug concentration in Wistar Hann rat plasma at 5 mg/kg, sc after 2 hrs
Assay type: ADME, organism-based
property.measured: concentration at 2 h

The recorded concentration at 2 h for "Cn1ccc(-c2ccc(Cn3cc(C(=O)N[C@H]4CCOC[C@@H]4O)c4ncccc43)cc2)n1" is 5.46 µM
